Test system: UACC-62 melanoma
test.description: NCI-60 one-dose screen, 48 h
experimental.parameters: 10 µM unless noted
Compounds without any hit were thinned out: in the full panel of roughly 83,000, 20% have a hit. Active and inactive are the calls of the source. The calls were made as follows: active = growth percent below 10; inactive = the rest.
Answer with one of the outcomes given here: t for active, f for inactive

Worked cases, answers included:
COc1ccc2cc(-c3ccc(-c4ccc(C(=N)N)cc4)s3)ccc2c1	f
Cn1cc(-c2cnc3ccc(NC(=O)Nc4ccc(F)c(Br)c4)cc3n2)cn1	t
O=C(NCc1cn(Cc2cccc(Oc3ccccc3)c2)nn1)c1cccnc1Nc1ccc(F)cc1	f
Cc1ccc(-c2csc(NC(=O)CCCCl)n2)cc1	f
CC(=O)Nc1nc(N)nc(NC(C)=O)c1N=O	f

Tell me the assay call for Cc1nc2ncccc2nc1Nc1ccc(S(=O)(=O)Nc2cncs2)cc1 please. f

====

Tested on: HT29 colon
test.description: NCI-60 one-dose screen, 48 h
experimental.parameters: 10 µM unless noted
Compounds without any hit were thinned out: in the full panel of roughly 83,000, 20% have a hit. The source made the active and inactive calls. The calls were made as follows: active = growth percent below 10; inactive = the rest.
Hello, when you answer, please use one of the following outcomes: active, inactive

O=C(NCc1cn(Cc2cccc(Oc3ccccc3)c2)nn1)c1cccnc1Nc1ccc(F)cc1	inactive
Clc1ccccc1-c1nc2ccccc2[nH]1	inactive
C=C1CCC2C(C)(CO)C(O)CCC2(C)C1C/C=C1/C(=O)OCC1Oc1ccccc1C (centres undefined)	inactive
COc1ccc(/C=C2\CN(Cc3cn(CCNc4ccnc5cc(Cl)ccc45)nn3)C/C(=C\c3ccc(OC)c(OC)c3)C2=O)cc1OC	active

// outcome(item) with item = COc1cc(/C=C/C(=O)N2CCN(C(=O)/C=C/c3cc(OC)c(OC)c(OC)c3)CC2)cc(OC)c1OC inactive

Now try Cc1nc2ncccc2nc1Nc1ccc(S(=O)(=O)Nc2ccccn2)cc1 . inactive

====

Tested on: PC-3 prostate
test.description: NCI-60 one-dose screen, 48 h
experimental.parameters: 10 µM unless noted
The panel holds about 83,000 compounds, 20% with a hit somewhere; the sample as a whole holds those more often. Active and inactive are the calls of the source. The calls were made as follows: active = growth percent below 10; inactive = the rest.
// allowed return values: true (1) for active, false (0) for inactive

Use these answered entries as a reference point.
COc1cc(-c2nn(-c3cccc(NC(=O)c4ccccc4)c3)cc2-c2ccncc2)ccc1Cl	false (0)
O=C(CSc1nc2ccccc2[nH]1)c1ccc(N2CCOCC2)cc1	false (0)
COc1ccc(-c2[nH]nc(N)c2-c2cc(OC)c3c(c2)OCO3)cc1	false (0)
COc1cc(/C=C/C(=O)c2cccc(-n3cc(-c4cc(OC)c(OC)c(OC)c4)[nH]c3=O)c2)cc(OC)c1OC	true (1)
CC1(C)C(=O)/C(=C\c2ccc(C(F)(F)F)cc2)C[C@]2(C)[C@H]3CC[C@@H]4[C@H]5[C@H](C(=O)/C=C/c6ccc(C(F)(F)F)cc6)CC[C@]5(CO)CC[C@@]4(C)[C@]3(C)CC[C@@H]12	false (0)
c1ccc(Nc2nc(Nc3ccccc3)nc(Nc3ccccc3)n2)cc1	false (0)

Record request — test call for COc1cc2c(c(OC)c1OC)-c1ccc(N)c(=O)cc1[C@@H](NC(C)=O)CC2 false (0)

Next up: O=C([O][Sn]([O]C(=O)c1ccccn1)([c]1ccccc1)[c]1ccccc1)c1ccccn1 false (0)

====

Tested on: PC-3 prostate
test.description: NCI-60 one-dose screen, 48 h (100 = growth as untreated, 0 = no growth, -100 = all killed)
experimental.parameters: 10 µM unless noted
This is part of a sample that, as a whole, favours compounds with a hit. Of some 83,000 tested, about 20% had one in any assay.
readout: growth (%)
Use % as the unit, but write only the number.

Please review the following examples before continuing.
Cc1cc(N)n(S(=O)(=O)c2oc(-c3ccccc3)nc2C#N)n1	100
COc1ccc(-c2ccc(-c3ccc(-c4ccc(C(=N)N)cc4)s3)s2)cc1OC	70.6
OB(O)c1cccc(-c2nc3ccc4[nH]ncc4c3c3c2CCCC3)c1F	55.5
C=C1C(=O)O[C@H]2[C@H]1CC/C(Cn1cc(CNC(=O)c3cc4ccccc4[nH]3)nn1)=C\CC[C@@]1(C)O[C@@H]21	70.2
CC(=O)c1cc2c(N)c(C(=O)Nc3cccc4c3OCCO4)sc2nc1C	91.4
C=C(C)[C@@H]1CC[C@]2(C(=O)N3CCNCC3)CC[C@]3(C)[C@H](CC[C@@H]4[C@@]5(C)C/C(=C/c6ccncc6)C(=O)C(C)(C)[C@@H]5CC[C@]43C)[C@@H]12	94.4
COc1ccc(OC)c(/C=C2\Oc3cc(OCCCN4CCCC4)ccc3C2=O)c1	82.9

Request the reported growth associated with CCCCCCCC[C@@H](O)CC(=O)N[C@@H](CC(N)=O)C(=O)N[C@@H](CCC(N)=O)C(=O)N[C@@H](CC(=O)c1cc(C)cc(O)c1C(=O)c1c(O)cccc1O)CC(C)C 10.8
